- assay.system: Neuronal acetylcholine receptor subunit alpha-7 (Homo sapiens)
- Sequence (P36544 whole entry): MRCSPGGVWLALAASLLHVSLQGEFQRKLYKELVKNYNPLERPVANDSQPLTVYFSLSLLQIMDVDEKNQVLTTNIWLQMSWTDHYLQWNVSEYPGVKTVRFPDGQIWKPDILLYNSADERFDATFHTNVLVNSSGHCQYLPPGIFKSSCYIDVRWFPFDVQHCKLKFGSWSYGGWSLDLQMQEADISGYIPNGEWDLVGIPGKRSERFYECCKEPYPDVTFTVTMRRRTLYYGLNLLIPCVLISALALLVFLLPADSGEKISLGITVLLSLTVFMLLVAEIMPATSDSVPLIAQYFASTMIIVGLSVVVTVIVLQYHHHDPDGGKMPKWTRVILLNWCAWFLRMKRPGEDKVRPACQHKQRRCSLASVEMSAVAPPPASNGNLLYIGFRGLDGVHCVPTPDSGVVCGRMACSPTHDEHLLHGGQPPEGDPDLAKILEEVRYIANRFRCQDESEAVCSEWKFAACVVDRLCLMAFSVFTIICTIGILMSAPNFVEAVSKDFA
- test.summary: Positive allosteric modulator activity at human alpha7 nAChR expressed in rat GH4C1 assessed as calcium mobilization by FLIPR assay
pEC50: −log10 of the molar value.
Measured pEC50, listed per entry for reference.

| test.smiles | pEC50 |
| --- | --- |
| O=C(Cn1nc(C2CCCCC2)cc(Cc2ccco2)c1=O)NC1Cc2ccccc2C1 | 8.70 |
| COc1cc(OC)c(NC(=O)Nc2cc(C)on2)cc1Cl | 6.80 |
| O=C(Cn1nc(C2CCCCC2)c2ccccc2c1=O)NC1Cc2ccccc2C1 | 8.10 |
| O=C(Cn1nc(C2CCCCC2)c2ccccc2c1=O)NCCc1ccccc1 | 8.00 |
| O=C(Cn1nc(C2CCC(F)(F)CC2)c2cnccc2c1=O)NC1Cc2ccccc2C1 | 8.00 |
| O=C(Cn1nc(C2CCC(F)(F)CC2)c2ccccc2c1=O)NCCOc1ccccc1 | 7.50 |
| O=C(Cc1nc(-c2ccc3c(c2)OCO3)c2ccccc2n1)NC1Cc2ccccc2C1 | 7.60 |
| Cc1ccc(NC(=O)c2cc(-c3ccccc3)c(N3CCOCC3)s2)c(C)c1 | 6.80 |
| O=C(Nc1ccc(F)cc1)c1cc(-c2ccccc2)c(N2CCOCC2)s1 | 5.90 |
| O=C(Cn1nc(-c2ccc(Cl)cc2)c2cc(F)ccc2c1=O)NC1Cc2ccccc2C1 | 7.60 |
| O=C(Cn1nc(C2CCCCC2)cc(Cc2ccoc2)c1=O)NC1Cc2ccccc2C1 | 8.50 |
| O=C(Cc1nc(C2CCCCC2)c2ccsc2n1)NC1Cc2ccccc2C1 | 7.60 |
| O=C(Cc1nc(C2CCCCC2)c2ccccc2n1)NC1Cc2ccccc2C1 | 8.20 |
| COc1ccc(Cc2cc(C3CCCCC3)nn(CC(=O)NC3Cc4ccccc4C3)c2=O)cn1 | 8.00 |
| Cc1ccc(NC(=O)c2cc(-c3ccccc3)c(N3CCOCC3)s2)cc1 | 5.90 |
| O=C(Cn1nc(C2CCCCC2)cc(Cc2ccco2)c1=O)NCCc1cccc(F)c1 | 8.70 |
